target or system: human MAO-B (Homo sapiens, UniProt P27338)
Sequence (P27338 1-520): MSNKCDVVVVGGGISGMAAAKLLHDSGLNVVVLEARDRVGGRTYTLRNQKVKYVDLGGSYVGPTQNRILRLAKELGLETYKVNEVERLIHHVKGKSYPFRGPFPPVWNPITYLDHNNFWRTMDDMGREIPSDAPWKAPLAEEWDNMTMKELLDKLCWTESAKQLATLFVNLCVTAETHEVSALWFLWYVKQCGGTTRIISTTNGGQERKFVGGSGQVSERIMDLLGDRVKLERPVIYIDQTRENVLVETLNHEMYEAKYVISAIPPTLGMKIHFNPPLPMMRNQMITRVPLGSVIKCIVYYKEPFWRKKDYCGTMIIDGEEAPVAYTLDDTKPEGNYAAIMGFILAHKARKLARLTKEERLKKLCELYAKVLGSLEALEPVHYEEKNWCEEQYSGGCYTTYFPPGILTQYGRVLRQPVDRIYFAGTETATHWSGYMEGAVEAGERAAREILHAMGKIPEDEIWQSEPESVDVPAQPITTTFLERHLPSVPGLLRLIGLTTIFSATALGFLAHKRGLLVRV
experiment notes: Human MAO-B assay (recombinant enzyme, Amplex Red fluorescence)
conditions used: p-tyramine 150 μM
# pIC50 listing for each entry below
Recall that pIC50 is obtained by taking minus log10 of the concentration measured in molar.

# count of solved cases: 4
| line notation | target or system | measured quantity | value measured |
| --- | --- | --- | --- |
| COc1ccc(NC(=O)c2ccc3[nH]ncc3c2)cc1Cl | human MAO-B (Homo sapiens, UniProt P27338) | pIC50 | 8.47 |
| O=C(Nc1ccc(Cl)c(O)c1)c1ccc2[nH]ncc2c1 | human MAO-B (Homo sapiens, UniProt P27338) | pIC50 | 7.43 |
| Cn1ncc2cc(C(=O)Nc3ccc(F)c(F)c3)ccc21 | human MAO-B (Homo sapiens, UniProt P27338) | pIC50 | 8.82 |
| O=C(Nc1cnc(Cl)c(Cl)c1)c1ccc2[nH]ncc2c1 | human MAO-B (Homo sapiens, UniProt P27338) | pIC50 | 8.27 |

IN: What does the data say about its pIC50? Entry: "Fc1cc(/N=C/c2ccc3[nH]ncc3c2)ccc1Cl"
OUT: 8.72

IN: What does the data say about its pIC50? Entry: "O=C(Nc1ccc(F)c(F)c1)c1ccc2[nH]ncc2c1"
OUT: 8.80

IN: What does the data say about its pIC50? Entry: "Cn1cc2cc(C(=O)Nc3ccc(F)c(F)c3)ccc2n1"
OUT: 7.42

IN: What does the data say about its pIC50? Entry: "COc1cc(NC(=O)c2ccc3[nH]ncc3c2)ccc1Cl"
OUT: 8.36

IN: What does the data say about its pIC50? Entry: "Cn1cc2cc(C(=O)Nc3ccc(Cl)c(Cl)c3)ccc2n1"
OUT: 8.84

IN: What does the data say about its pIC50? Entry: "Clc1cc(/N=C/c2ccc3[nH]ncc3c2)cnc1Cl"
OUT: 9.32

====

target or system: human MAO-B (Homo sapiens)
experiment notes: Human MAO-B assay (recombinant enzyme, Amplex Red fluorescence)
conditions used: p-tyramine 150 μM
pIC50: −log10 of the molar value.
Everything with pIC50 lower than 8 is criterion not met; everything else, including exactly 8, is criterion met.

Worked set:
| line notation | class label |
| --- | --- |
| COc1ccc(NC(=O)c2ccc3[nH]ncc3c2)cc1OC | criterion not met |
| O=C(Nc1ccc(Cl)c(F)c1)c1ccc2[nH]ncc2c1 | criterion met |
| O=C(Nc1ccc(O)c(Cl)c1)c1ccc2[nH]ncc2c1 | criterion not met |

# input for lookup
IN: Could you please find out whether "Fc1ccc(/N=C/c2ccc3[nH]ncc3c2)cc1Cl" has pIC50 that meets 8 or exceeds it?
OUT: criterion met
